- Target Or Test System: T1, TRCW5 antigen (CD3δε-Fc-Avi) (biotinylated (site not stated))
- T1 construct: also called recombinant CD3
- T1 sequence (chain, as listed by the source mutant limits assumed): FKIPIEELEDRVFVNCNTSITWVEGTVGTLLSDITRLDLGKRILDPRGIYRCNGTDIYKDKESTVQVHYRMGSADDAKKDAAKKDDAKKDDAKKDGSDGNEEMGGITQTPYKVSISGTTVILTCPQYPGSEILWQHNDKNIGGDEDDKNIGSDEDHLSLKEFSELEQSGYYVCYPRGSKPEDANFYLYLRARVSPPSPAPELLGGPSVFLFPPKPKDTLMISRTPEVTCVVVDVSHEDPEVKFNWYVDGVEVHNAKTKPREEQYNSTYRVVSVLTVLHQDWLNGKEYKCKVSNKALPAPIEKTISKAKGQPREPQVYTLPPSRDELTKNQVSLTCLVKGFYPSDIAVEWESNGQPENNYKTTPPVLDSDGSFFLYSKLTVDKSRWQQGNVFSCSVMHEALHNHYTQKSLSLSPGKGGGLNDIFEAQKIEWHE
- Protocol Description: ELISA after heat

Binder: CD3B2052 (scFv) scFv: QVQLVQSGAEVKKPGSSVKVSCKASGYTFTRSTMHWVKQAPGQGLEWMGYINPSSAYTNYAQKFQGRVTLTADKSTSTAYMELSSLRSEDTAVYYCASPQVHYDYNGFPYWGQGTLVTVSSGGSEGKSSGSGSESKSTGGSEIVLTQSPATLSASPGERVTLSCSASSSVSYMNWYQQKPGTSPRRWIYDSSKLASGVPARFSGSGSGRDYTLTISSLEPEDFAVYYCQQWSRNPPTFGGGTKVEIK
% Retained 65° C. [%]: 25

Binder: CD3B2041 (scFv) scFv: QVQLVQSGAEVKKPGSSVKVSCKASGYTFTRSTMHWVRQAPGQGLEWIGYINPSSAYTNYNQKFQGRVTLTADKSTSTAYMELSSLRSEDTAVYYCASPQVHYDYNGFPYWGQGTLVTVSSGGSEGKSSGSGSESKSTGGSEIVLTQSPATLSASPGERVTLSCSASSSVSYMNWYQQKPGTAPRRWIYDSSKLASGVPARFSGSGSGRDYTLTISSLEPEDFAVYYCQQWSRNPPTFGGGTKVEIK
% Retained 65° C. [%]: 16

Binder: CD3B2035 (scFv) scFv: QVQLVQSGAEVKKPGSSVKVSCKASGYTFTRSTMHWVKQAPGQGLEWMGYINPSSAYTNYNQKFQGRVTLTADKSTSTAYMELSSLRSEDTAVYYCASPQVHYDYNGFPYWGQGTLVTVSSGGSEGKSSGSGSESKSTGGSEIVLTQSPATLSASPGERVTLSCSASSSVSYMNWYQQKPGQAPRRWIYDSSKLASGVPARFSGSGSGRDYTLTISSLEPEDFAVYYCQQWSRNPPTFGGGTKVEIK
% Retained 65° C. [%]: 47

Binder: CD3B2053 (scFv) scFv: QVQLVQSGAEVKKPGSSVKVSCKASGYTFTRSTMHWVKQAPGQGLEWMGYINPSSAYTNYAQKFQGRVTLTADKSTSTAYMELSSLRSEDTAVYYCASPQVHYDYNGFPYWGQGTLVTVSSGGSEGKSSGSGSESKSTGGSEIVLTQSPATLSASPGERVTLSCSASSSVSYMNWYQQKPGQSPRRLIYDSSKLASGVPARFSGSGSGRDYTLTISSLEPEDFAVYYCQQWSRNPPTFGGGTKVEIK
% Retained 65° C. [%]: 30

Binder: CD3B1128 (scFv, also called Murine LH; murine Cris-7 scFv (LH)) scFv: QVVLTQSPAIMSAFPGEKVTMTCSASSSVSYMNWYQQKSGTSPKRWIYDSSKLASGVPARFSGSGSGTSYSLTISSMETEDAATYYCQQWSRNPPTFGGGTKLQITGGSEGKSSGSGSESKSTGGSQVQLQQSGAELARPGASVKMSCKASGYTFTRSTMHWVKQRPGQGLEWIGYINPSSAYTNYNQKFKDKATLTADKSSSTAYMQLSSLTSEDSAVYYCASPQVHYDYNGFPYWGQGTLVTVSA
% Retained 65° C. [%]: 3
